test system: cheatgrass; assay: Test B preemergence/postemergence greenhouse plant response rating 0 to 10; assay type: in vivo, Bromus secalinus; details: POSTEMERGENCE, Rate 50 g/ha; 0 to 10 scale
reported endpoint: Plant response rating, Cheatgrass
// no unit, no text: just the number

molecule | Plant response rating, Cheatgrass
CC(C)(C)C(=O)COc1cc(-c2nn3c(c2Cl)CCCC3)c(Cl)cc1Cl [Compound 77] | 2
CCN1C(=O)COc2cc(F)c(-c3nn4c(c3Cl)CCCC4)cc21 [Compound 54] | 7
CCOCOc1cc(-c2nn3c(c2Cl)CCCC3)c(F)cc1Cl [Compound 59] | 4
C=C(Cl)COc1cc(-c2nn3c(c2Cl)CCCC3)c(F)cc1Cl [Compound 40] | 4
CCOC(=O)COc1cc(-c2nn3c(c2Cl)CCCC3)c(Cl)cc1Cl [Compound 73] | 3

Sure, the documented Plant response rating, Cheatgrass for Fc1cc(Cl)ccc1-c1nn2c(c1Br)CCCC2 [Compound 52] is 4

====

test system: barnyardgrass; experiment: Test B preemergence/postemergence greenhouse plant response rating 0 to 10; format: in vivo, Echinochloa crus-galli; conditions: PREEMERGENCE, Rate 50 g/ha; 0 to 10 scale
reported endpoint: Plant response rating, Barnyardgrass
// no unit, no text: just the number

Worked set:
chemical structure | measured target | Plant response rating, Barnyardgrass
CC(C)N1C(=O)COc2cc(F)c(-c3nn4c(c3Cl)CCCC4)cc21 | barnyardgrass | 3
CCOC(=O)COc1cc(-c2nn3c(c2Cl)CCCC3)c(F)cc1Cl | barnyardgrass | 0
CC(C)Oc1cc(-c2nn3c(c2Cl)CCCC3)c(Cl)cc1Cl | barnyardgrass | 0
Fc1cc(Cl)c(OC2CCCC2)cc1-c1nn2c(c1Cl)CCCC2 | barnyardgrass | 1
C#CCOc1cc(-c2nn3c(c2Br)CCCC3)c(F)cc1Cl | barnyardgrass | 2

Sure, the documented Plant response rating, Barnyardgrass for CCOCOc1cc(-c2nn3c(c2Cl)CCCC3)c(F)cc1Cl is 6

Sure, the documented Plant response rating, Barnyardgrass for FCCCOc1cc(-c2nn3c(c2Cl)CCCC3)c(F)cc1Cl is 3

Sure, the documented Plant response rating, Barnyardgrass for CCOC(=O)COc1cc(-c2nn3c(c2Cl)CCCC3)c(Cl)cc1Cl is 0

Sure, the documented Plant response rating, Barnyardgrass for CCN1C(=O)COc2cc(F)c(-c3nn4c(c3Cl)CCCC4)cc21 is 3

====

test system: barnyardgrass; assay: Test B preemergence/postemergence greenhouse plant response rating 0 to 10; assay type: in vivo, Echinochloa crus-galli; details: PREEMERGENCE, Rate 50 g/ha; 0 to 10 scale
reported endpoint: Plant response rating, Barnyardgrass
// no unit, no text: just the number

compound | reported endpoint | data value
COCOc1cc(-c2nn3c(c2Cl)CCCC3)c(F)cc1Cl [Compound 58] | Plant response rating, Barnyardgrass | 4
CCCCN1C(=O)COc2cc(F)c(-c3nn4c(c3Cl)CCCC4)cc21 [Compound 57] | Plant response rating, Barnyardgrass | 3
C#CC(C)Oc1cc(-c2nn3c(c2Cl)CCCC3)c(Cl)cc1Cl (stereo not drawn) [Compound 74] | Plant response rating, Barnyardgrass | 0
Clc1cc(Cl)c(-c2nn3c(c2Cl)CCCC3)cc1OCC1CC1 [Compound 69] | Plant response rating, Barnyardgrass | 0

Sure, the documented Plant response rating, Barnyardgrass for O=C1COc2cc(F)c(-c3nn4c(c3Cl)CCCC4)cc2N1 [Compound 51] is 9

Sure, the documented Plant response rating, Barnyardgrass for CC(C#N)Oc1cc(-c2nn3c(c2Cl)CCCC3)c(F)cc1Cl (stereo not drawn) [Compound 60] is 0
